The measurements presented in this section are drawn from patent US20260365670A1.

# target desc: EGFR[T790M/C797S/d746-750] (Homo sapiens, UniProt P00533, C797S/DEL746-750/T790M)
# Construct: purchased Carna Bio
# Sequence (P00533 with tags, fused parts or gaps DEL746-750/T790M/C797S limits assumed): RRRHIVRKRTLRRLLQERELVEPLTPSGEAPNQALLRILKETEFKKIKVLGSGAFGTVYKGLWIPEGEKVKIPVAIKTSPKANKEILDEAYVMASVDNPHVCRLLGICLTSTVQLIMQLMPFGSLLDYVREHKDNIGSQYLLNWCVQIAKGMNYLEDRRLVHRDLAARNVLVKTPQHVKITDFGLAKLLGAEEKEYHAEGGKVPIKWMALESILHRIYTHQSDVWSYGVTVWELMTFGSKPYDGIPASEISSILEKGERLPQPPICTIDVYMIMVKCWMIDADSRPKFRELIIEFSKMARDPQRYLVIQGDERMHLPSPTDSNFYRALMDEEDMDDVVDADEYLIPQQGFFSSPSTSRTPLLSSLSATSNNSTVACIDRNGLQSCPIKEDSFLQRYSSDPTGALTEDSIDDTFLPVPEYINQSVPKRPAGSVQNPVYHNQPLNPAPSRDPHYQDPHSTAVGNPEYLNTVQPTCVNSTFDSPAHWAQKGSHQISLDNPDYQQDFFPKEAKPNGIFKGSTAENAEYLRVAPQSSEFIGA
# procedure summary: Inhibition of EGFR[T790M/C797S/d746-750] biochemical enzymatic activity (HTRF)
# recorded conditions: EGFR T790M-C797S-Del19, 1 mM ATP, 1 h, room temperature, read-out: IC50 (nM) @T790M - C797S - Del19
# Protocol: Biological Example 1: Inhibition of EGFR WT and Mutant Biochemical Enzymatic Activity The inhibition potency of compounds against these enzymes was assessed using Homogenous Time Resolved Fluorescence approach (HTRF, CisBio. Cat No. 62TKOPEJ). Inhibitory effects of the compounds were determined by measuring the enzymatic activity of EGFR enzyme phosphorylates 1 μM TK Substrate-biotin in the presence of 1 mM adenosine-5′-triphosphate (ATP) and varying concentrations of the test compound. […]
measurement type: IC50 (nM)

Previously resolved entries follow.
{"columns": ["compound", "IC50 / nM"],
 "data": [
  ["CN1CC2(C1)CN(c1ccc3nc4n(c3c1)C13CCC(CN(CCOc5c(cnn5C)-c5cc(cn(C)c5=O)C(=O)N4)C1)C3)C2 (single isomer, unassigned) [Example A92B]", 2.3],
  ["C[C@@H]1CCCOc2c(cnn2C)-c2cc(cn(C)c2=O)C(=O)Nc2nc3ccc(N4CCC5(CC4)CCN5C)cc3n2C1 [Example A52]", 3.4],
  ["CN(C)CC1(F)CN(c2ccc3nc4n(c3c2)C23CCC(CN(CCOc5c(cnn5C)-c5cc(cn(C)c5=O)C(=O)N4)C2)C3)C1 (single isomer, unassigned) [Example A72B]", 2.2]
]}

A: C[C@@H]1CCCOc2c(cnn2C)-c2cc(cn(C)c2=O)C(=O)Nc2nc3ccc(N4CCC(N5CCN(C)CC5)C4)cc3n2C1 (some centres unmarked) [Example A33]
B: CN1CCN(c2ccc3nc4n(c3c2)CCN(CC(F)(F)F)CCOc2c(cnn2C)-c2cc(cn(C)c2=O)C(=O)N4)CC1 [Example A3]
C: CN1CCN(c2ccc3nc4n(c3c2)C23CCC(CN(CCOc5c(cnn5C)-c5cc(cn(C)c5=O)C(=O)N4)C2)C3)CC1 (single isomer, unassigned) [Example A63B]
Rank entries according to their IC50, from the largest number down. Your task in answering is to list the labels in the requested order.
B, A, C
(B: 8.9 nM, A: 3.1 nM, C: 1.1 nM)

====

# Test system: Ba/F3 cells expressing EGFR mutations
# procedure summary: Cell proliferation assay, Ba/F3 cells expressing EGFR mutations (CellTiter-Glo, 72 hours)
# Type: cell-based
# recorded conditions: BaF3 cells, EGFR L858R-T790M, CellTiter-Glo, read-out: L858R-T790M/BaF3 GI50
measurement type: GI50 (nM)

{"columns": ["molecule", "GI50 (nM)"],
 "data": [
  ["CN1CC2CN(c3ccc4nc5n(c4c3)C34CCC(CN(CCOc6c(cnn6C)-c6cc(cn(C)c6=O)C(=O)N5)C3)C4)CC2C1 (single isomer, unassigned) [Example A68B]", 9.6]
]}

1: CN(C)CCN(C)c1ccc2nc3n(c2c1)C12CCC(CN(CCOc4c(cnn4C)-c4cc(cn(C)c4=O)C(=O)N3)C1)C2 (single isomer, unassigned) [Example A85B]
2: CN1CC2(C1)CN(c1ccc3nc4n(c3c1)C13CCC(CN(CCOc5c(cnn5C)-c5cc(cn(C)c5=O)C(=O)N4)C1)C3)C2 (single isomer, unassigned) [Example A92B]
3: CN1CCC2(C1)CN(c1ccc3nc4n(c3c1)C13CCC(CN(CCOc5c(cnn5C)-c5cc(cn(C)c5=O)C(=O)N4)C1)C3)C2 (single isomer, unassigned) [Example A78A]
Please put the entries in order of rising GI50. Your task in answering is to list the labels in the requested order.
2, 1, 3
(2: 3 nM, 1: 7.7 nM, 3: 380 nM)

====

Quick list: IC50 per entry.
# target desc: EGFR L858R/T790M (Homo sapiens, UniProt P00533, L858R/T790M)
# Construct: purchased Carna Bio
# Sequence (P00533 25-1210 T790M/L858R): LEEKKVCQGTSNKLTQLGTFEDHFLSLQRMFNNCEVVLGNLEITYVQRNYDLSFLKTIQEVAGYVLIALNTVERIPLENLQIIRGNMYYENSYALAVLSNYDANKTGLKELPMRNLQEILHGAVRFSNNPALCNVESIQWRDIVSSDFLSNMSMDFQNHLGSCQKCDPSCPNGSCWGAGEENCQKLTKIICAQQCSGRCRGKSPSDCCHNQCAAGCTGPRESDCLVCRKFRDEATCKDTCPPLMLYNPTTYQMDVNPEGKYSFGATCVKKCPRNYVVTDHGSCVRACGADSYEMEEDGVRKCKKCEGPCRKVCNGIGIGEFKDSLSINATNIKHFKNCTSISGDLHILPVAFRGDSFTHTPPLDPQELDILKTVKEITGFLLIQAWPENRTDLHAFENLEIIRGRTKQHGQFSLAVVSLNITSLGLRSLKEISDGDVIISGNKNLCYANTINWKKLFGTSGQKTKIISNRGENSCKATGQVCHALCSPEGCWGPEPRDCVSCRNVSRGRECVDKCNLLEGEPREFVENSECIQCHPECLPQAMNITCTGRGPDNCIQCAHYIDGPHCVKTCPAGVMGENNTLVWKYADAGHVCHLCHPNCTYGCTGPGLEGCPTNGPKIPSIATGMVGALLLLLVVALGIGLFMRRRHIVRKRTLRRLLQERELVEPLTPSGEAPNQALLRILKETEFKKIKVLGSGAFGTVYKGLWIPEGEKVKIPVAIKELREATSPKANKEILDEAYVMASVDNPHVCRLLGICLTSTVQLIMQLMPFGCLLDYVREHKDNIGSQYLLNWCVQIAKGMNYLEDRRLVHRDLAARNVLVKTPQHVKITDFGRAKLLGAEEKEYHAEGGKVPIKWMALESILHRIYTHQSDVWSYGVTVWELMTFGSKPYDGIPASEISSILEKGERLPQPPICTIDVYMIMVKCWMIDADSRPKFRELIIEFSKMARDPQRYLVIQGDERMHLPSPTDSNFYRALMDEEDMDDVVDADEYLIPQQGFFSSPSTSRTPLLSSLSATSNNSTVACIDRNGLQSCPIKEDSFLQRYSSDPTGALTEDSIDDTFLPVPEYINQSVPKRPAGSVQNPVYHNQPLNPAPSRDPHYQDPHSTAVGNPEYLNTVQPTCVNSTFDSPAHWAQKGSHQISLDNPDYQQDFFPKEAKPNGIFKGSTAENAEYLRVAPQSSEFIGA
# procedure summary: Inhibition of EGFR L858R/T790M biochemical enzymatic activity (HTRF)
# recorded conditions: EGFR L858R-T790M, 1 mM ATP, 1 h, room temperature, read-out: IC50 (nM) @L858R-T790M
# Protocol: Biological Example 1: Inhibition of EGFR WT and Mutant Biochemical Enzymatic Activity The inhibition potency of compounds against these enzymes was assessed using Homogenous Time Resolved Fluorescence approach (HTRF, CisBio. Cat No. 62TKOPEJ). Inhibitory effects of the compounds were determined by measuring the enzymatic activity of EGFR enzyme phosphorylates 1 μM TK Substrate-biotin in the presence of 1 mM adenosine-5′-triphosphate (ATP) and varying concentrations of the test compound. […]

Previously resolved entries follow.
{"columns": ["molecule", "IC50"],
 "data": [
  ["Cn1ncc2c1OCCN1CC3(CCCC1C3)n1c(nc3ccc(N4CCOCC4)cc31)NC(=O)c1cc-2c(=O)n(C)c1 (centres unmarked) [Example A9]", "> 5000 nM"],
  ["CN(C)C1CN(c2ccc3nc4n(c3c2)C23CCC(CN(CCOc5c(cnn5C)-c5cc(cn(C)c5=O)C(=O)N4)C2)C3)CC1F (single isomer, unassigned) [Example A84A]", "> 5000 nM"],
  ["C[C@@H]1CCCOc2c(cnn2C2CC2)-c2cc(cn(C)c2=O)C(=O)Nc2nc3ccc(N4CCN(C)CC4)cc3n2C1 [Example A22]", "6.3 nM"],
  ["Cn1ncc2c1OCCN(C1COC1)CCn1c(nc3ccccc31)NC(=O)c1cc-2c(=O)n(C)c1 [Example A5]", "> 5000 nM"]
]}

Reported IC50 of Cn1ncc2c1OCCN1CCCCC(C)(C1)n1c(nc3ccc(N4CCOCC4)cc31)NC(=O)c1cc-2c(=O)n(C)c1 (centres unmarked) [Example A13] : > 5000 nM

====

# target desc: EGFR Exon19Del/T790M (Homo sapiens, UniProt P00533, DEL746-750/T790M)
# Construct: purchased Carna Bio
# Sequence (P00533 with tags, fused parts or gaps DEL746-750/T790M limits assumed): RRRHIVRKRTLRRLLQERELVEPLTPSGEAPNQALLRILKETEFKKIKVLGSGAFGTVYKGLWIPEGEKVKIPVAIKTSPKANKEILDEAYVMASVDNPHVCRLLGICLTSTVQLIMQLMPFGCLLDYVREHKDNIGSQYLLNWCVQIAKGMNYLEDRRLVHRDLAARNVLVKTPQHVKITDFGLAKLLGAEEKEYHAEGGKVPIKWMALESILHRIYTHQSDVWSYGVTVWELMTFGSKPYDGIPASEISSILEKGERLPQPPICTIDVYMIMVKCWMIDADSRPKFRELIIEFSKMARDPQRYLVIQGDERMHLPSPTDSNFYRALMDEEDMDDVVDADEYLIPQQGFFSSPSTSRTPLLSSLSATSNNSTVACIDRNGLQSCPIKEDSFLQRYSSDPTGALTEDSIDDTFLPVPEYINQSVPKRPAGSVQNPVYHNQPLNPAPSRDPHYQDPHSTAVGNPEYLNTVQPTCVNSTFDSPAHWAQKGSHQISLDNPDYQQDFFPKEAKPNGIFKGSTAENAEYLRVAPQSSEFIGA
# procedure summary: Inhibition of EGFR Exon19Del/T790M biochemical enzymatic activity (HTRF)
# recorded conditions: EGFR Exon19Del/T790M, 1 mM ATP, 1 h at room temperature, read-out: IC50 @Del19-T790M
# Description: Biological Example 1: Inhibition of EGFR WT and Mutant Biochemical Enzymatic Activity The inhibition potency of compounds against these enzymes was assessed using Homogenous Time Resolved Fluorescence approach (HTRF, CisBio. Cat No. 62TKOPEJ). Inhibitory effects of the compounds were determined by measuring the enzymatic activity of EGFR enzyme phosphorylates 1 μM TK Substrate-biotin in the presence of 1 mM adenosine-5′-triphosphate (ATP) and varying concentrations of the test compound. […]
pIC50: −log10 of the molar value.
measurement type: pIC50

Previously resolved entries follow.
{"columns": ["compound", "pIC50"],
 "data": [
  ["Cc1cc2cc(n1)-c1cnn(C)c1OCCN1CC3CCC(C3)(C1)n1c(nc3ccc(N4CCC(N5CCN(C)CC5)CC4)cc31)NC2=O (single isomer, unassigned) [Example B59B]", 8.00],
  ["Cc1cc2cc(n1)-c1cnn(C)c1OCCN1CC3CCC(C3)(C1)n1c(nc3ccc(N4CCC5(CN(C)C5)C4)cc31)NC2=O (single isomer, unassigned) [Example B50A]", 5.64]
]}

a: Cc1cc2cc(n1)-c1cnn(C)c1OCCN1CC3CCC(C3)(C1)n1c(nc3ccc(N4CCN(C)CC4)cc31)NC2=O (single isomer, unassigned) [Example B9A]
b: Cc1cc2cc(n1)-c1cnn(C)c1OCCN1CC3CCC(C3)(C1)n1c(nc3ccc(N(C)CCN(C)C)cc31)NC2=O (single isomer, unassigned) [Example B47A]
Hi there, can you help? I need to know whether a or b has lower measured pIC50. Return value: the label identifying the chosen record.
b
(b: 5.37, a: 5.97)

====

# target desc: EGFR (d746-750 C797S) (Homo sapiens, UniProt P00533, C797S/DEL746-750)
# Construct: purchased signalchem
# Sequence (P00533 with tags, fused parts or gaps DEL746-750/C797S limits assumed): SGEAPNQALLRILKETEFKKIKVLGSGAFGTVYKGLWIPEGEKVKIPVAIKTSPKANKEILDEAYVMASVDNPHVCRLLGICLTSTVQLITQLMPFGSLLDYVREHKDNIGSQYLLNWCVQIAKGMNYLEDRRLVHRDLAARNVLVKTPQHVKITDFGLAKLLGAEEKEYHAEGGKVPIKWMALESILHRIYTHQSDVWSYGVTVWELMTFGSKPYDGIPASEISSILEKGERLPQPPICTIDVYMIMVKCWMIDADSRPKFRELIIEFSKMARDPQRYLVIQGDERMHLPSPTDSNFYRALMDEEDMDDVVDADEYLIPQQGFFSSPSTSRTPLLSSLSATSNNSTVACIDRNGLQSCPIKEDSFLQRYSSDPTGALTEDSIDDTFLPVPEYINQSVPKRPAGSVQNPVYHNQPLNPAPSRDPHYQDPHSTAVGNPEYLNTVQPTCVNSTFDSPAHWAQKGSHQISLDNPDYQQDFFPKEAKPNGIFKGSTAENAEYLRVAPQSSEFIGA
# procedure summary: Inhibition of EGFR (d746-750 C797S) biochemical enzymatic activity (HTRF)
# recorded conditions: EGFR (d746-750 C797S), 1 mM ATP, 1 h at room temperature, read-out: IC50 @Del19-C797S
# Procedure: Biological Example 1: Inhibition of EGFR WT and Mutant Biochemical Enzymatic Activity The inhibition potency of compounds against these enzymes was assessed using Homogenous Time Resolved Fluorescence approach (HTRF, CisBio. Cat No. 62TKOPEJ). Inhibitory effects of the compounds were determined by measuring the enzymatic activity of EGFR enzyme phosphorylates 1 μM TK Substrate-biotin in the presence of 1 mM adenosine-5′-triphosphate (ATP) and varying concentrations of the test compound. […]
Quick list: IC50 per entry.

{"columns": ["molecule", "measurement type", "experimental value"],
 "data": [
  ["Cc1cc2cc(n1)-c1cnn(C)c1OCCN1CC3CCC(C3)(C1)n1c(nc3ccc(N(C)CCCN(C)C)cc31)NC2=O (single isomer, unassigned) [Example B45B]", "IC50", "0.0024 µM"],
  ["Cc1cc2cc(n1)-c1cnn(C)c1OCCN1CC3CCC(C3)(C1)n1c(nc3ccc(N4CC5CN(C)CC5C4)cc31)NC2=O (single isomer, unassigned) [Example B43A]", "IC50", "> 5 µM"],
  ["Cc1cc2cc(n1)-c1cnn(C)c1OCCN1CC3CCC(C3)(C1)n1c(nc3ccc(N4CCC(N5CCN(C)CC5)C4)cc31)NC2=O (single isomer, unassigned) [Example B49A]", "IC50", "> 5 µM"],
  ["Cc1cc2cc(n1)-c1cnn(C)c1OCCN1CC3CCC(C3)(C1)n1c(nc3ccc(N4CC[C@H](N(C)C)C4)cc31)NC2=O (single isomer, unassigned) [Example B41A]", "IC50", "> 5 µM"]
]}

Shifting focus to the molecule that follows.
Reported IC50 of COCCN(C)c1ccc2nc3n(c2c1)C12CCC(CN(CCOc4c(cnn4C)-c4cc(cc(C)n4)C(=O)N3)C1)C2 (single isomer, unassigned) [Example B46A] : > 5 µM
